- System: NCI-H1573 (Lung Adenocarcinoma)
- ASSAY: combination Emax (second highest fraction inhibited in the dose matrix, 72 h); higher = more inhibition; extreme values may be limits of the assay
Parameter combination Emax: see the listing below.
Give only the figure.

Quick one: combination Emax of CC1(C)CCC(CN2CCN(c3ccc(C(=O)NS(=O)(=O)c4ccc(NCC5CCOCC5)c([N+](=O)[O-])c4)c(Oc4cnc5[nH]ccc5c4)c3)CC2)=C(c2ccc(Cl)cc2)C1 [Venetoclax] + C=CCn1c(=O)c2cnc(Nc3ccc(N4CCN(C)CC4)cc3)nc2n1-c1cccc(C(C)(C)O)n1 [AZD1775] (first compound max 1 µM, partner max 1 µM) ?
0.31

combination Emax lookup needed for Cc1c2c(nn1C)CSCc1cc(n(C)n1)CSc1cc(c3ccccc3c1)OCCCc1c(C(=O)O)n(C)c3c-2c(Cl)ccc13 [AZD5991] + C[C@@H](Nc1cc(F)cc(F)c1)c1cc(C(=O)N(C)C)cc2c(=O)cc(N3CCOCC3)oc12 [AZD8186] (first compound max 1 µM, 7x7, partner max 3 µM) , thanks.
0.318

Using the record for NC1(C(=O)N[C@@H](CCO)c2ccc(Cl)cc2)CCN(c2ncnc3[nH]ccc23)CC1 [Capivasertib] + CC(=O)c1c(C)c2cnc(Nc3ccc(N4CCNCC4)cn3)nc2n(C2CCCC2)c1=O [Palbociclib] (first compound max 10 µM, 7x7, partner max 10 µM) , report its combination Emax.
0.507

# input compound: C=CCn1c(=O)c2cnc(Nc3ccc(N4CCN(C)CC4)cc3)nc2n1-c1cccc(C(C)(C)O)n1 [AZD1775] + O=C(c1cc(Cc2n[nH]c(=O)c3ccccc23)ccc1F)N1CCN(C(=O)C2CC2)CC1 [Olaparib] (first compound max 1 µM, partner max 10 µM) ; wanted: its combination Emax
0.325

// query combination Emax value for entry COc1nnc2ccc(N3CCC(c4ccc(OCCN5CCN(C)C(=O)[C@H]5C)cc4)CC3)nn12 [AZD5153] + CCN(CCO)CCCOc1ccc2c(Nc3cc(CC(=O)Nc4cccc(F)c4)[nH]n3)ncnc2c1 [AZD2811] (first compound max 1 µM, 7x7, partner max 1 µM)
0.412

// combination Emax lookup, key: Cc1c2c(nn1C)CSCc1cc(n(C)n1)CSc1cc(c3ccccc3c1)OCCCc1c(C(=O)O)n(C)c3c-2c(Cl)ccc13 [AZD5991] + Cn1cnc2c(F)c(Nc3ccc(Br)cc3Cl)c(C(=O)NOCCO)cc21 [Selumetinib] (first compound max 1 µM, 7x7, partner max 3 µM)
0.586

Fill in: combination Emax of Cc1c2c(nn1C)CSCc1cc(n(C)n1)CSc1cc(c3ccccc3c1)OCCCc1c(C(=O)O)n(C)c3c-2c(Cl)ccc13 [AZD5991] + C1CN(CCC1(C(=O)N[C@@H](CCO)C2=CC=C(C=C2)Cl)N)C3=NC=NC4=C3C=CN4 [Capivasertib] (first compound max 1 µM, 7x7, partner max 3 µM) is ___
0.264

====

- Test system: NCI-N87 (Gastric Carcinoma);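 also: after 72 h of two-drug dosing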
- ASSAY: Bliss excess, mean over the matrix (fraction); higher = more synergy
MEASUREMENT_LABEL: Bliss excess
Number only, please.

These recorded examples may help you get a feel for the data.
COMPOUND | OBS_VALUE
O=C(c1cc(Cc2n[nH]c(=O)c3ccccc23)ccc1F)N1CCN(C(=O)C2CC2)CC1 [Olaparib] + COc1nnc2ccc(N3CCC(c4ccc(OCCN5CCN(C)C(=O)[C@H]5C)cc4)CC3)nn12 [AZD5153] (first compound max 10 µM, 7x7, partner max 1 µM) | -0.019
Cn1cnc2c(F)c(Nc3ccc(Br)cc3Cl)c(C(=O)NOCCO)cc21 [Selumetinib] + CC(C)n1c(=O)n(C)c2cnc3cc(F)c(-c4ccc(OCCCN5CCCCC5)nc4)cc3c21 [AZD1390] (first compound max 10 µM, 7x7, partner max 0.3 µM) | -0.0279
C[C@@H](Nc1cc(F)cc(F)c1)c1cc(C(=O)N(C)C)cc2c(=O)cc(N3CCOCC3)oc12 [AZD8186] + C1CN(CCC1(C(=O)N[C@@H](CCO)C2=CC=C(C=C2)Cl)N)C3=NC=NC4=C3C=CN4 [AZD5363] (first compound max 10 µM, 7x7, partner max 10 µM) | 0.0125
Cc1c2c(nn1C)CSCc1cc(n(C)n1)CSc1cc(c3ccccc3c1)OCCCc1c(C(=O)O)n(C)c3c-2c(Cl)ccc13 [AZD5991] + C1CN(CCC1(C(=O)N[C@@H](CCO)C2=CC=C(C=C2)Cl)N)C3=NC=NC4=C3C=CN4 [Capivasertib] (first compound max 1 µM, 7x7, partner max 3 µM) | -0.0516
C=CCn1c(=O)c2cnc(Nc3ccc(N4CCN(C)CC4)cc3)nc2n1-c1cccc(C(C)(C)O)n1 [AZD1775] + C1CN(CCC1(C(=O)N[C@@H](CCO)C2=CC=C(C=C2)Cl)N)C3=NC=NC4=C3C=CN4 [Capivasertib] (first compound max 3 µM, partner max 3 µM) | -0.0067
CN(CCO)CC[C@H](CSc1ccccc1)Nc1ccc(S(=O)(=O)NC(=O)c2ccc(N3CCC([C@@H](O)c4ccccc4-c4ccc(Cl)cc4)CC3)cc2)cc1S(=O)(=O)C(F)(F)F [AZD4320] + Nc1ccn([C@@H]2O[C@H](CO)[C@@H](O)C2(F)F)c(=O)n1 [Gemcitabine] (first compound max 1 µM, 7x7, partner max 0.3 µM) | -0.0058
Cc1c2c(nn1C)CSCc1cc(n(C)n1)CSc1cc(c3ccccc3c1)OCCCc1c(C(=O)O)n(C)c3c-2c(Cl)ccc13 [AZD5991] + CN(C)CCCOc1ccc(-c2ccc3ncc4c(c3c2)n(C2CCOCC2)c(=O)n4C)cn1 [AZD0156] (first compound max 1 µM, 7x7, partner max 1 µM) | 0.0027
CC1(C)CCC(CN2CCN(c3ccc(C(=O)NS(=O)(=O)c4ccc(NCC5CCOCC5)c([N+](=O)[O-])c4)c(Oc4cnc5[nH]ccc5c4)c3)CC2)=C(c2ccc(Cl)cc2)C1 [Venetoclax] + C1CN(CCC1(C(=O)N[C@@H](CCO)C2=CC=C(C=C2)Cl)N)C3=NC=NC4=C3C=CN4 [Capivasertib] (first compound max 1 µM, 7x7, partner max 3 µM) | -0.0833

API: the following record is the query input.
Which Bliss excess value belongs to COc1nnc2ccc(N3CCC(c4ccc(OCCN5CCN(C)C(=O)[C@H]5C)cc4)CC3)nn12 [AZD5153] + Cn1cnc2c(F)c(Nc3ccc(Br)cc3Cl)c(C(=O)NOCCO)cc21 [Selumetinib] (first compound max 1 µM, 7x7, partner max 10 µM) ?
-0.0399

Taken from the supplement of paper PMC11061612.
